Values were extracted from PubChem BioAssay AID179.

Please provide measured pIC50 for the entries that follow.
Test system: CEM cells HIV-1 protection, formazan growth assay
Assay: NCI AIDS Antiviral Assay
Details: measured here: growth of uninfected CEM cells
Give bare numbers, as −log10 of the molar value.

Some solved entries appear below for comparison.
{"compound": "CC(=O)OCC1=C(C)C[C@H]([C@@H](COC(C)=O)C2CCC3C4C[C@H]5O[C@]56CC=CC(=O)[C@]6(C)C4CC[C@@]32C)OC1=O (stereo not given in full)", "pIC50": 6.87}
{"compound": "CN(C)c1ccc(C=Nc2ccc(SSc3ccc(N=Cc4ccc(N(C)C)cc4)cc3)cc2)cc1", "pIC50": 4.60}
{"compound": "O=C1C(=O)c2ccccc2C(O)=C1CC=C(Cl)Cl", "pIC50": 6.02}
{"compound": "O=C1C=C/C(=N\\N=C(c2ccccc2)c2ccccc2)O1", "pIC50": 3.84}

Find the recorded pIC50 belonging to CC1OC(OC2C(O[C@H]3CC[C@@]4(C)[C@@H](CC[C@@H]5[C@@H]4CC[C@]4(C)[C@@H]6[C@H](C[C@@H]54)O[C@]4(CC[C@@H](C)CO4)[C@H]6C)C3)OC(CO)C(OC3OC(CO)C(O)C(OC4OCC(O)C(O)C4O)C3OC3OCC(O)C(O)C3O)C2O)C(O)C(O)C1O (stereo not given in full) and report it.
6.08

====

Tested on: CEM cells HIV-1 protection, formazan growth assay
Assay: NCI AIDS Antiviral Assay
Details: measured here: growth of uninfected CEM cells
measurement label: IC50

{"compound": "Cn1c(=O)c2nncnc2n(C)c1=O", "IC50": "> 200 µM"}
{"compound": "CCc1cccc(C)c1NC(=O)CC1Sc2ccccc2NC1=O (stereo unspecified)", "IC50": "17.8 µM"}
{"compound": "CSC(C)CS(=O)(=O)O (stereo unspecified)", "IC50": "> 200 µM"}
{"compound": "O=C(N/N=C(/c1nc2ccc(Cl)cc2[nH]c1=O)C(O)c1ccc(Cl)cc1Cl)c1ccncc1 (stereo unspecified)", "IC50": "162 µM"}
{"compound": "N#Cc1c(N=Cc2ccccc2)c(C(=O)Nc2ccccc2)n2c1CCC2", "IC50": "> 50.1 µM"}

Now consider a different compound.
Find the recorded IC50 belonging to O=C(CC/C(CC(=O)c1ccc(Br)cc1)=N\O)Nc1ccc(Cl)c(Cl)c1 and report it.
16.2 µM

====

Test system: CEM cells HIV-1 protection, formazan growth assay
Assay: NCI AIDS Antiviral Assay
measurement label: EC50

Some solved entries appear below for comparison.
{"smi": "COc1ccc2c(C)cc(=O)oc2c1OC", "EC50": "> 200 µM"}
{"smi": "O=C(n1c(=O)n(-c2ccc(Cl)cc2)c(=O)n1C(=O)C(Cl)(Cl)Cl)C(Cl)(Cl)Cl", "EC50": "> 200 µM"}

Provide each entry's EC50 from the list below.
1. O=[N+]([O-])C(=C(Cl)Cl)C(Cl)=C(Cl)Cl
2. CN1CCN(c2n[nH]c(=O)c3c2nnn3Cc2ccccc2)CC1
3. N#Cc1nc(CCN2C(=O)c3ccccc3C2=O)oc1N
4. Cn1c2ccccc2c2c(-c3ccccc3)cc3c(c21)C(=O)C=CC3=O

1. > 200 µM
2. > 200 µM
3. > 200 µM
4. > 100 µM
